# System: ZIKV
# assayProtocol: RT-qPCR analysis of virus genomes, ZIKV
# Format: cell-based
# experimentalContext: Zika virus, read-out: EC50 from RT-qPCR analysis, ZIKV, c.t.
observationType: EC50 (nM)

compound: CCN1/C(=C\C=C\c2sc3cc(NC(C)=O)ccc3[n+]2CC)Sc2cc(NC(C)=O)ccc21.[I-] [C10]
quantitativeResult: 440

###

# Tested on: DENV2
# assayProtocol: RT-qPCR analysis of virus genomes, DENV2
# Assay type: cell-based
# experimentalContext: Dengue virus, DENV2, read-out: EC50 from RT-qPCR analysis, DENV2, p.i.

smi: CCN1/C(=C\C=C\c2sc3cc(NC(C)=O)ccc3[n+]2CC)Sc2cc(NC(C)=O)ccc21.[I-]
EC50 (nM): 810

Entry source: patent US12527773B2
